- measurement_target: recombinant human PKA (Homo sapiens, UniProt P17612)
- Construct: recombinant human PKA (residues 1-351, N-terminal His-tag); His-tag (N); purchased Invitrogen, Karlsruhe, Germany
- run_description: Determination of Protein Kinase A inhibition (selectivity)
- Assay type: biochemical
- test_context: from IC50 values
Entries and their Selectivity against PKA

CCCC1(C(N)C2CC2)CCC(Oc2cc3cc[nH]c(=O)c3cc2Cl)CC1 (single isomer, unassigned) [Example 7]	>300 fold

Here's the next entry for you.
Request: Specify Selectivity against PKA for CCC1(C(C)N)CCC(Oc2cc3cc[nH]c(=O)c3cc2Cl)CC1 (single isomer, unassigned) [Example 3] and stop.
Result: >1000 fold

* * *

- measurement_target: recombinant human PKA (Homo sapiens)
- Construct: recombinant human PKA (residues 1-351, N-terminal His-tag); His-tag (N); purchased Invitrogen, Karlsruhe, Germany
- run_description: Determination of Protein Kinase A inhibition (selectivity)
- Type: biochemical
- test_context: from IC50 values
property_label: Selectivity against PKA

Look over these answered cases.
NC(C1CC1)[C@]1(C2CC2)CC[C@H](Oc2cc3cc[nH]c(=O)c3cc2Cl)CC1 (stereo partly shown) [Example 75]	>1000 fold
CC(N)C1(C2CCC2)CCC(Oc2cc3cc[nH]c(=O)c3cc2Cl)CC1 (single isomer, unassigned) [Example 21]	>300 fold
CC(C)C(N)C1(CC2CC2)CCC(Oc2cc3cc[nH]c(=O)c3cc2Cl)CC1 (single isomer, unassigned) [Example 18]	>300 fold
CCC(N)[C@]1(C2CC2)CC[C@H](Oc2cc3cc[nH]c(=O)c3cc2Cl)CC1 (stereo partly shown) [Example 74]	>1000 fold
CCC(N)C1(C(C)C)CCC(Oc2cc3cc[nH]c(=O)c3cc2Cl)CC1 (single isomer, unassigned) [Example 8]	>100 fold

Request: Specify Selectivity against PKA for CCC(N)C1(COC(C)C)CCC(Oc2cc3cc[nH]c(=O)c3cc2Cl)CC1 (single isomer, unassigned) [Example 19] and stop.
Result: >1000 fold

Request: Specify Selectivity against PKA for NC(C1CC1)[C@]1(CCCC(F)(F)F)CC[C@H](Oc2cc3cc[nH]c(=O)c3cc2Cl)CC1 (stereo partly shown) [Example 73] and stop.
Result: >1000 fold

* * *

- measurement_target: recombinant human PKG1-beta (Homo sapiens)
- Construct: PKG1-beta (full-length, with N-terminal His-tag); His-tag (N); purchased Millipore GmbH, Schwalbach, Germany
- Sequence (Q13976 1-686 isoform Q13976-2): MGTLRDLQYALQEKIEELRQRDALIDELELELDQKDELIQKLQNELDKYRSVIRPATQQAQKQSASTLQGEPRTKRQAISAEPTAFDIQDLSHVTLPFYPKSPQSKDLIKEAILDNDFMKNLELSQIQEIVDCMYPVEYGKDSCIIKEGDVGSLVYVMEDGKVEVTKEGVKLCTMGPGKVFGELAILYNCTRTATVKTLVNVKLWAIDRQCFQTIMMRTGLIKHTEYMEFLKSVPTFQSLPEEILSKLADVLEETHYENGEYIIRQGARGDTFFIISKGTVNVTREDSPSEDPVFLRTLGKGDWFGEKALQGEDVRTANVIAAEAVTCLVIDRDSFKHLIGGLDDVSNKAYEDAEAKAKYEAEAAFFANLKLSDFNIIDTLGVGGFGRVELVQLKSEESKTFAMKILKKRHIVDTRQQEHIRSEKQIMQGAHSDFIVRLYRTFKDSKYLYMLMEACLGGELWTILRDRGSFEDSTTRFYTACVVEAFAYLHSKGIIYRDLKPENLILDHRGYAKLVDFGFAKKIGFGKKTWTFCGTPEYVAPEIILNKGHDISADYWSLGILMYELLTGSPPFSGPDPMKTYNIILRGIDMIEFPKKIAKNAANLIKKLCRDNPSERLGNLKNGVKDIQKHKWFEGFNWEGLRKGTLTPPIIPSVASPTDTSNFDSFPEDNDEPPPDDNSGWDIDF
- run_description: Determination of Protein Kinase G inhibition (selectivity)
- Format: biochemical
- test_context: from IC50 values
Entries and their Selectivity against PKG

CCC(N)[C@]1(C2CCSCC2)CC[C@H](Oc2cc3cc[nH]c(=O)c3cc2Cl)CC1 (some centres unmarked) [Example 76]	>1000 fold
CCC(N)C1(C(C)C)CCC(Oc2cc3cc[nH]c(=O)c3cc2Cl)CC1 (single isomer, unassigned) [Example 8]	>100 fold
CCC(N)C1(C)CCC(Oc2cc3cc[nH]c(=O)c3cc2Cl)CC1 (single isomer, unassigned) [Example 27]	>1000 fold
CCC(N)[C@]1(OC)CC[C@@H](Oc2cc3cc[nH]c(=O)c3cc2Cl)CC1 (some centres unmarked) [Example 59]	>100 fold
CC(N)[C@]1(C2CC2)CC[C@H](Oc2cc3cc[nH]c(=O)c3cc2Cl)CC1 (some centres unmarked) [Example 72]	>100 fold
CCCC(N)[C@]1(C(C)C)CC[C@H](Oc2cc3cc[nH]c(=O)c3cc2Cl)CC1 (some centres unmarked) [Example 35]	>10 fold
CCC(N)C1(C2CCC2)CCC(Oc2cc3cc[nH]c(=O)c3cc2Cl)CC1 (single isomer, unassigned) [Example 23]	>10 fold
CCC[C@]1(C(C)N)CC[C@@H](Oc2cc3cc[nH]c(=O)c3cc2Cl)CC1 (some centres unmarked) [Example 77]	>300 fold
CCC(N)[C@]1(CC)CC[C@H](Oc2cc3cc[nH]c(=O)c3cc2Cl)CC1 (some centres unmarked) [Example 34]	>300 fold
NC(C1CC1)C1(CC2CC2)CCC(Oc2cc3cc[nH]c(=O)c3cc2Cl)CC1 (single isomer, unassigned) [Example 16]	>300 fold

Request: Please tell me the measured Selectivity against PKG for CCC(N)[C@]1(C(C)C)CC[C@H](Oc2cc3c(F)c[nH]c(=O)c3cc2Cl)CC1 (some centres unmarked) [Example 90] ; system: recombinant human PKG1-beta (Homo sapiens).
Result: >100 fold

Request: Please tell me the measured Selectivity against PKG for CC[C@]1(C(N)CF)CC[C@H](Oc2cc3cc[nH]c(=O)c3cc2Cl)CC1 (some centres unmarked) [Example 96] ; system: recombinant human PKG1-beta (Homo sapiens).
Result: >100 fold

Request: Please tell me the measured Selectivity against PKG for CCCC(N)[C@]1(C)CC[C@H](Oc2cc3cc[nH]c(=O)c3cc2Cl)CC1 (some centres unmarked) [Example 62] ; system: recombinant human PKG1-beta (Homo sapiens).
Result: >100 fold

Request: Please tell me the measured Selectivity against PKG for CCC(N)C1(CC)CCC(Oc2cc3cc[nH]c(=O)c3cc2Cl)CC1 (single isomer, unassigned) [Example 108] ; system: recombinant human PKG1-beta (Homo sapiens).
Result: >10 fold
